Recorded below: pIC50, system CCK receptor (brain) (Cavia porcellus).
// returns pIC50 (minus log10 of molar concentration), number only

## Input # assay system CCK receptor (brain) (Cavia porcellus): give pIC50 of CN1C(=O)C(NC(=O)Nc2cccc(C3=C(O)CNC3=O)c2)N=C(C2CCCCC2)c2ccccc21 (racemic) [Example 2]
## Output 8.54

## Input Look up and report measured pIC50 (CCK receptor (brain) (Cavia porcellus)) for the following compound: CN1C(=O)[C@H](NC(=O)Nc2cccc(C3=C(O)CNC3=O)c2)N=C(c2ccccc2)c2ccccc21 [Example 3]
## Output 7.80

Please examine the following record next.
## Input State, for CCK receptor (brain) (Cavia porcellus), measured pIC50 of the compound listed here: CN1CC(O)=C(c2cccc(NC(=O)NC3N=C(C4CCCCC4)c4ccccc4N(C)C3=O)c2)C1=O (racemic) [Example 4]
## Output 8.20

###

tgt: CCK receptor (pancreas) (Rattus norvegicus)
Construct: The whole pancreas was dissected free of fat tissue and was homogenized; from tissue; host or cells: pancreas of male Sprague-Dawley rats (membrane homogenate)
Sequence (P30551 1-444): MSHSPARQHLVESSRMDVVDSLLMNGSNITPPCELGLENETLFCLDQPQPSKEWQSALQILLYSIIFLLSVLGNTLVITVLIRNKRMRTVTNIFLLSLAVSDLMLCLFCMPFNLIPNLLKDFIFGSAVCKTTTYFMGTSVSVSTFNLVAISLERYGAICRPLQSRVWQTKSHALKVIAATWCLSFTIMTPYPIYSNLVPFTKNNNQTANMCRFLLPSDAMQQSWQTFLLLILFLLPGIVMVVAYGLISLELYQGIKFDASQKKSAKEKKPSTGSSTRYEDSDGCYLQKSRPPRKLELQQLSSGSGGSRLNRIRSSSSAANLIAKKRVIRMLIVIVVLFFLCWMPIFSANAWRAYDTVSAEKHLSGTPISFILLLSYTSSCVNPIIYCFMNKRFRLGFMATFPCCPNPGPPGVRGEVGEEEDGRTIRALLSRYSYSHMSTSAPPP
experimentNotes: CCK Receptor Binding (Pancreas), inhibition of 125I-CCK-8 binding
Set-up: species or system rat (male Sprague-Dawley)
conditionsUsed: rat pancreas membranes, 50 pM 125I-CCK-8, pH 6.5, 25° C., 2 hours; read-out: CCK RECEPTOR BINDING RESULTS IC50, 125I-CCK Pancreas
Measured IC50 values are reported for all entries that follow.
Express the result in nM but write the number alone.

## Input Give the reported IC50 for this compound. CN1CC(O)=C(c2cccc(NC(=O)NC3N=C(C4CCCCC4)c4ccccc4N(C)C3=O)c2)C1=O (racemic) [Example 4]
## Output 56

## Input Answer with the recorded IC50 of CN1CC(O)=C(c2cccc(NC(=O)N[C@@H]3N=C(C4CCCCC4)c4ccccc4N(C)C3=O)c2)C1=O [Example 5] only.
## Output 280

## Input Using the record for CN1C(=O)C(NC(=O)Nc2cccc(C3=C(O)CSC3=O)c2)N=C(C2CCCCC2)c2ccccc21 (racemic) [Example 1] , state its measured IC50.
## Output 13

## Input Please list IC50 recorded for the compound CN1C(=O)[C@H](NC(=O)Nc2cccc(C3=C(O)CNC3=O)c2)N=C(C2CCCCC2)c2ccccc21 [Example 6]
## Output 110

Could you now consider this next compound?
## Input Give IC50 for CN1C(=O)C(NC(=O)Nc2cccc(C3=C(O)CNC3=O)c2)N=C(C2CCCCC2)c2ccccc21 (racemic) [Example 2]
## Output 7.5
